These entries and their values trace back to patent US20180215734A1.

Target: UniProt Q12866
Sequence (Q12866 21-999): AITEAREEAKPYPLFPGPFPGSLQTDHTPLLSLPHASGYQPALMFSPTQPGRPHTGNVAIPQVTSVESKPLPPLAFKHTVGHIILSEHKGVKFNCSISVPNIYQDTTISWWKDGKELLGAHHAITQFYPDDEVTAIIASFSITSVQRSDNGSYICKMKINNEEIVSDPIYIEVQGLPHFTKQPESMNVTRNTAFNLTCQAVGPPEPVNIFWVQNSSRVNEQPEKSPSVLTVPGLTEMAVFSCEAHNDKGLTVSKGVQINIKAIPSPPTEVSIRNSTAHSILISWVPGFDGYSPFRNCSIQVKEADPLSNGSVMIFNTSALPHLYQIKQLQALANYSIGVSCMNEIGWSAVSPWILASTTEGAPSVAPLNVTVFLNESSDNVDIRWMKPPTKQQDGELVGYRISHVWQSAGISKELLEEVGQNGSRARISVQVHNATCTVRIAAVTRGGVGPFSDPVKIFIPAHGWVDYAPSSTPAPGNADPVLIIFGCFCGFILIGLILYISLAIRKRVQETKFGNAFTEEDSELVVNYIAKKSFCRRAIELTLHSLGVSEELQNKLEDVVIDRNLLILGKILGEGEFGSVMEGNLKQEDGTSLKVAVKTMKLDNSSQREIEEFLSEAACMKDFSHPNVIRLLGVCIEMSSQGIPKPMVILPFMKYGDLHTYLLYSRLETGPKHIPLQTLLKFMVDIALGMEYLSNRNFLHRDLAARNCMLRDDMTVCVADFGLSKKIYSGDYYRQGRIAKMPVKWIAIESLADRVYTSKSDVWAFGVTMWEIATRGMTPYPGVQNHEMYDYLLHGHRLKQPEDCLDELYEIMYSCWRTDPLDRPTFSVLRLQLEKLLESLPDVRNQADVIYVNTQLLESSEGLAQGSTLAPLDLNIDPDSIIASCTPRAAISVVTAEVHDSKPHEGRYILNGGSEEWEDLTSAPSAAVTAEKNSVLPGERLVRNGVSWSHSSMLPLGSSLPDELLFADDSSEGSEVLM
pIC50: −log10 of the molar value.
property_name: pIC50

// Input: Cc1cc2c(F)c(Oc3ncnc(Nc4ccc(N5C[C@@H](C)N[C@@H](C)C5)cc4)c3C#N)cc(F)c2[nH]1 [Compound 19] . Output its pIC50 only.
< 6.00

###

test system: KG1a; assay: Inhibition of proliferation (CellTiterblue, 72 hr), KG1a; type: cell-based, human; details: Homo sapiens, KG-1a; 72 hr
Binary label based on GI50 with cut-off 20 nM: below gives 1.0, not below gives 0.0.

Consider the worked cases shown below.
CCC(=O)Nc1ccc(Nc2ncnc(Oc3cc(F)c4[nH]c(C)cc4c3F)c2C#N)cc1 [Compound 57] ... 1.0
Cc1cc2c(F)c(Oc3ncnc(Nc4ccc5[nH]ccc5c4)c3C#N)cc(F)c2[nH]1 [Compound 42] ... 0.0
Cc1cc2c(F)c(Oc3ncnc(Nc4ccc(N5C[C@@H](C)N(C)[C@@H](C)C5)cc4)c3C#N)cc(F)c2[nH]1 [Compound 45] ... 1.0
Cc1cc2c(F)c(Oc3ncnc(Nc4ccc(NC(=O)C5CC5)cc4)c3C#N)cc(F)c2[nH]1 [Compound 35] ... 0.0
Cc1cc2c(F)c(Oc3ncnc(Nc4ccc(N5CCN(C)C(C)C5)cc4)c3C#N)cc(F)c2[nH]1 (stereo not shown) [Compound 46] ... 1.0
CC(=O)Nc1ccc(Nc2ncnc(Oc3ccc4[nH]c(C)cc4c3F)c2C#N)cc1 [Compound 25] ... 0.0

We now examine a further compound.
Lab note: GI50 threshold 20 nM. Does this compound come in strictly under it? Cc1cc2c(F)c(Oc3ncnc(Nc4ccc(N5CCN(CCO)CC5)cc4)c3C#N)cc(F)c2[nH]1 [Compound 31]
1.0

###

Listing of entries alongside the reported inhibition at 1 µM.
biological target: KDR(h) (Homo sapiens); test: Kinase assay, KDR(h); format: biochemical
Sequence (P35968 20-1356): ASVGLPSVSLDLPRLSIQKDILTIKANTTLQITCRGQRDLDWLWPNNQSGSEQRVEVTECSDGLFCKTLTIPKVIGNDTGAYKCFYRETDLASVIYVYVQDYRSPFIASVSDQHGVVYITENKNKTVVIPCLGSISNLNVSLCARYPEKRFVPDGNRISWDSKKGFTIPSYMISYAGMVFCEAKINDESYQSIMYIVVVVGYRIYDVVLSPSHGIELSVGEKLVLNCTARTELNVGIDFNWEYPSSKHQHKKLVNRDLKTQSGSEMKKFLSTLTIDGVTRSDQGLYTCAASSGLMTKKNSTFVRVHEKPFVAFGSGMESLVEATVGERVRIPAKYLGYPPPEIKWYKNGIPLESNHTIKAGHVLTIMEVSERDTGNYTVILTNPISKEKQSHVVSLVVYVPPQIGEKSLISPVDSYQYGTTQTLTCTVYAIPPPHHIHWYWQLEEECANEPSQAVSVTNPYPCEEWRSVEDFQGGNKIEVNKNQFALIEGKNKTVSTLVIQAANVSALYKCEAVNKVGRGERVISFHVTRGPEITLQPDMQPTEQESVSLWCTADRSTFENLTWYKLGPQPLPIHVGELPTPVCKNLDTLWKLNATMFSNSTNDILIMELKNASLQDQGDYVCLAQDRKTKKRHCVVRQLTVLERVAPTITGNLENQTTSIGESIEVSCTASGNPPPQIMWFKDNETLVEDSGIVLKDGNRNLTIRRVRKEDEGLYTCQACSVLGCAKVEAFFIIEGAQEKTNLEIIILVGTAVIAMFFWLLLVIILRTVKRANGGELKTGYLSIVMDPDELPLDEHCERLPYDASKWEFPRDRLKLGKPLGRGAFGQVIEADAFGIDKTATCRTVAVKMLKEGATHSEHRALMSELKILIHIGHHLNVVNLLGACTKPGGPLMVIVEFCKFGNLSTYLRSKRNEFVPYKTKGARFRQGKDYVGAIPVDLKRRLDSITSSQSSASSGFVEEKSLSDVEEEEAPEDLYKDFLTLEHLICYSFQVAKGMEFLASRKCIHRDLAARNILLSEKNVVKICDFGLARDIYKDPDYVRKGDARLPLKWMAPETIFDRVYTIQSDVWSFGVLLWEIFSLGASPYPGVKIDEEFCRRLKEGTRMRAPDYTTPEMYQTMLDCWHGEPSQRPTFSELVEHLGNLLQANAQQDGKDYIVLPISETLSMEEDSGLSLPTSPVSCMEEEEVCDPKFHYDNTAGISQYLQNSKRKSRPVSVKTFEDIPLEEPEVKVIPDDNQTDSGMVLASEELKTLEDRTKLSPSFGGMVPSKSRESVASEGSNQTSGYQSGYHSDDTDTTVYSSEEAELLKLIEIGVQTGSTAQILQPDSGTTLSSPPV
Supply the numeric figure in %, leaving out any unit text.

Answered cases to consult:
Cc1cc2c(F)c(Oc3ncnc(Nc4cccc(N5CCOCC5)c4)c3C#N)ccc2[nH]1 ... 96
Cc1cc2c(F)c(Oc3ncnc(Nc4ccc([N+](=O)[O-])cc4)c3C#N)cc(F)c2[nH]1 ... 14
Cc1cc2c(F)c(Oc3ncnc(Nc4ccc(N5CCNCC5)c(F)c4)c3C#N)ccc2[nH]1 ... 96
Cc1cc2c(F)c(Oc3ncnc(Nc4ccc(C5CCNCC5)cc4)c3C#N)ccc2[nH]1 ... 94
COc1cc(N2CCN(C)CC2)ccc1Nc1ncnc(Oc2ccc3[nH]c(C)cc3c2F)c1C#N ... 96

// Input: `Cc1cc2c(F)c(Oc3ncnc(Nc4ccc(N5CCN(CCO)CC5)cc4)c3C#N)cc(F)c2[nH]1` . Output its inhibition at 1 µM only.
95

// Input: `Cc1cc2c(F)c(Oc3ncnc(Nc4ccc(NC(=O)C5CC5)cc4)c3C#N)cc(F)c2[nH]1` . Output its inhibition at 1 µM only.
95

// Input: `CCC(=O)Nc1cccc(Nc2ncnc(Oc3cc(F)c4[nH]c(C)cc4c3F)c2C#N)c1` . Output its inhibition at 1 µM only.
91

// Input: `Cc1cc2c(F)c(Oc3ncnc(Nc4ccc(N5CCCS5(=O)=O)cc4)c3C#N)ccc2[nH]1` . Output its inhibition at 1 µM only.
96

###

target: UniProtKB P35968
property_name: IC50

Specify the recorded IC50 for Cc1cc2c(F)c(Oc3ncnc(Nc4ccc(N5C[C@@H](C)N[C@@H](C)C5)cc4)c3C#N)cc(F)c2[nH]1 [Compound 19] , system: UniProtKB P35968.
485 nM

###

target: IGF-1R(h) (Homo sapiens)
Sequence (P08069 31-1367): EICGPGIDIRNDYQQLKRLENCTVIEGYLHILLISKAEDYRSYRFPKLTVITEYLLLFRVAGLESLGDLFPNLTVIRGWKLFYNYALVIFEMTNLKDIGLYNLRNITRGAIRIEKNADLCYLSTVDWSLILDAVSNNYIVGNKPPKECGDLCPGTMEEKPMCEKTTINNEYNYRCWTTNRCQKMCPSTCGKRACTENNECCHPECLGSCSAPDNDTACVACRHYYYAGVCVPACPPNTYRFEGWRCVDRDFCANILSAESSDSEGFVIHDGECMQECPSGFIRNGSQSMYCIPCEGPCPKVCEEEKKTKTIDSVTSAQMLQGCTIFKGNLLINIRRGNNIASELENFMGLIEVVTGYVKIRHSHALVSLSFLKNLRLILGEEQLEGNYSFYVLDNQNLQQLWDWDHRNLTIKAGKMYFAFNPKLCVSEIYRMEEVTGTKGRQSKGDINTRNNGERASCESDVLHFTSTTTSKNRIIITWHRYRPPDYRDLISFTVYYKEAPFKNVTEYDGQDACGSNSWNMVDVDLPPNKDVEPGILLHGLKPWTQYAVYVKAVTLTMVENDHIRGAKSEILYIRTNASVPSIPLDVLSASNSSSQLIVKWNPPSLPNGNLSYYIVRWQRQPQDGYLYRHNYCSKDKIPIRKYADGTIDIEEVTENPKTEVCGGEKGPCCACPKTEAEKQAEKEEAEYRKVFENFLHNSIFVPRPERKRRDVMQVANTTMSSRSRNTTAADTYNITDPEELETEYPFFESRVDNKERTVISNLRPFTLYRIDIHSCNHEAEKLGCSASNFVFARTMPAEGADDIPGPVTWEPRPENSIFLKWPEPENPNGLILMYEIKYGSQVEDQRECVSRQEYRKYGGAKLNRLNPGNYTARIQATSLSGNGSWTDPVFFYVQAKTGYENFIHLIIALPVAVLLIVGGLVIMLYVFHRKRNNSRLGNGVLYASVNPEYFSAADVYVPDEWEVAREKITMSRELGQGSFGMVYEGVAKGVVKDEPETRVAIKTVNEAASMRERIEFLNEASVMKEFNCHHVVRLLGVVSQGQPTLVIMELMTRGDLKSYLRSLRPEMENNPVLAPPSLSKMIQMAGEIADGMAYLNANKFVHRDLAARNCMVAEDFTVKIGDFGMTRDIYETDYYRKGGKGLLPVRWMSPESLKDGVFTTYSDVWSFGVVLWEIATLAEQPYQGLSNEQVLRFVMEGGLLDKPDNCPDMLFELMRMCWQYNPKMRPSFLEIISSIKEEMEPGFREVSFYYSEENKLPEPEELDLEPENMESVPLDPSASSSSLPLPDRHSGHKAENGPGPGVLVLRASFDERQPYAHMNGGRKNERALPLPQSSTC
property_name: IC50

Specify the recorded IC50 for Cc1cc2c(F)c(Oc3ncnc(Nc4ccc(N5C[C@@H](C)N[C@@H](C)C5)cc4)c3C#N)cc(F)c2[nH]1 [Compound 19] , system: IGF-1R(h) (Homo sapiens).
> 1000 nM

###

target: KDR(h) (Homo sapiens); experiment: Kinase assay, KDR(h); format: biochemical
property_name: inhibition at 1 µM (%)
Supply the numeric figure in %, leaving out any unit text.

Answered cases to consult:
Cc1cc2c(F)c(Oc3ncnc(Nc4ccc(N5CCN6CCCC6C5)cc4)c3C#N)cc(F)c2[nH]1 (stereo not shown) [Compound 50] ... 88
Cc1cc2c(F)c(Oc3ncnc(Nc4ccc(N5[C@H](C)CNC[C@@H]5C)cc4)c3C#N)cc(F)c2[nH]1 [Compound 49] ... 82
COC(=O)c1ccc(Nc2ncnc(Oc3cc(F)c4[nH]c(C)cc4c3F)c2C#N)cc1 [Compound 54] ... 17

Now for a further compound.
// Input: Cc1cc2c(F)c(Oc3ncnc(Nc4ccc(N5CCN(C)CC5)c(C(F)(F)F)c4)c3C#N)ccc2[nH]1 [Compound 7] . Output its inhibition at 1 µM only.
94

###

assay: Metabolic stability, human liver microsomes; format: in vitro ADME
property_name: half-life (min)
Supply the numeric figure in min, leaving out any unit text.

// Input: Cc1nc(Nc2ncc(C(=O)Nc3c(C)cccc3Cl)s2)cc(N2CCN(CCO)CC2)n1 [DASATINIB, dasatinib, reference compound] . Output its half-life only.
7.5

###

Protein target, amino acids: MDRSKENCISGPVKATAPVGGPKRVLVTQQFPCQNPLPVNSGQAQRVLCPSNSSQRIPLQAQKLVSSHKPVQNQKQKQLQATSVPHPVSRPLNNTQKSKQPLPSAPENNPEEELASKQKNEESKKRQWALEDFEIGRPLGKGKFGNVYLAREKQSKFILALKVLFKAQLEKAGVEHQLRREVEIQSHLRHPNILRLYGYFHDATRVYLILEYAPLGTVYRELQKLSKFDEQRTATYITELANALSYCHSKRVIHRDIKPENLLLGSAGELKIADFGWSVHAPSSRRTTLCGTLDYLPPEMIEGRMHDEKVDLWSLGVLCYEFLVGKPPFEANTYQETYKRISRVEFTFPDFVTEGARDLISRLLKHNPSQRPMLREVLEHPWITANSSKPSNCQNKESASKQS
pIC50: −log10 of the molar value.
property_name: pIC50

// Input: `Cc1cc2c(F)c(Oc3ncnc(Nc4ccc(N5C[C@@H](C)N[C@@H](C)C5)cc4)c3C#N)cc(F)c2[nH]1` . Output its pIC50 only.
< 6.00

###

experiment: Metabolic stability, rat liver microsomes; format: in vitro ADME
Listing of entries alongside the reported half-life.

// Input: Cc1nc(Nc2ncc(C(=O)Nc3c(C)cccc3Cl)s2)cc(N2CCN(CCO)CC2)n1 [DASATINIB, dasatinib, reference compound] . Output its half-life only.
11.9 min

// Input: Cc1cc2c(F)c(Oc3ncnc(Nc4ccc(N5C[C@@H](C)N[C@@H](C)C5)cc4)c3C#N)cc(F)c2[nH]1 [Compound 19] . Output its half-life only.
> 60 min

###

molecular target: FGFR1 (Homo sapiens, UniProt P11362); construct: expressed in transfected cells; host or cells: BaF3; test: BaF3 cells engineered for expression of FGFR1; assay type: cell-based; conditions: read-out: IC5o(nM) FGFR1
Sequence (P11362 22-822, species assumed): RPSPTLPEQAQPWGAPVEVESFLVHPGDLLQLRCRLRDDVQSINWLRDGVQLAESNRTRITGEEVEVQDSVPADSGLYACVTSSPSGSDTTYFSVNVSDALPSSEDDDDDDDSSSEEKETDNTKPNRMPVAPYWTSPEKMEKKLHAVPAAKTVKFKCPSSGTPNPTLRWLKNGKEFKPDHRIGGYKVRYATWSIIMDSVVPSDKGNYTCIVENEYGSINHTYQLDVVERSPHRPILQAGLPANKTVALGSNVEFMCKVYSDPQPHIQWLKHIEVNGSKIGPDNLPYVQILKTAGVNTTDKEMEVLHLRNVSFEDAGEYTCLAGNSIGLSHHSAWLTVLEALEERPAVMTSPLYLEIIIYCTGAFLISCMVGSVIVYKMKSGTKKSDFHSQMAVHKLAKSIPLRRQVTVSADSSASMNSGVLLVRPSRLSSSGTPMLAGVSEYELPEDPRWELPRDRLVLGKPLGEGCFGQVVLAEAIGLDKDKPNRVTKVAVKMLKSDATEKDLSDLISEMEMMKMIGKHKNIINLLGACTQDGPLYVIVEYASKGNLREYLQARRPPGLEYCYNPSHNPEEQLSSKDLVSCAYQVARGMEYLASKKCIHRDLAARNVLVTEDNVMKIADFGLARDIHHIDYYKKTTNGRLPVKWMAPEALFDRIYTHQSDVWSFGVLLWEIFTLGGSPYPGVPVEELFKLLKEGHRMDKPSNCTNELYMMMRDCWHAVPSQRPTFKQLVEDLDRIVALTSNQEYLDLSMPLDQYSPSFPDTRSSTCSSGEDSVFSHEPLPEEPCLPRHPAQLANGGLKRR
property_name: IC50 (nM)
Supply the numeric figure in nM, leaving out any unit text.

Specify the recorded IC50 for Cc1cc2c(F)c(Oc3ncnc(Nc4ccc(N5C[C@@H](C)N[C@@H](C)C5)cc4)c3C#N)cc(F)c2[nH]1 [Compound 19] , system: FGFR1 (Homo sapiens, UniProt P11362).
11.4
